# melting point annotations

Example entries and their recorded answers appear below.
COMPOUND	RESULT
CC(=O)OC[C@H]1OC(O)[C@H](OC(C)=O)[C@@H](F)[C@@H]1OC(C)=O (stereo not given in full)	115 to 120 °C
Fc1ccc(OC2CCN(CCc3c[nH]c4ccc(OCc5ccccc5)cc34)CC2)cc1	134 to 136 °C
CC(C)N(Sc1nc2ccccc2s1)C(C)C	57 to 59 °C
CC(C)Oc1nc2cc([N+](=O)[O-])c(-n3ccc(=O)cc3)cc2[nH]c1=NC#N	> 300 °C

Next, consider the following compound.
### Prompt Name the reported melting point value associated with the compound "O=C1C(=Cn2ccnc2)c2ccccc2N1c1ccccc1"
### Response 158 to 161 °C

----------
# melting point annotations

Example entries and their recorded answers appear below.
MOLECULE	melting point
O=C1C2=C(SCCS2)C(O)N1c1ccc2c(Cl)ccnc2n1 (centres undefined)	300 to 305 °C
CCOC(=O)c1cc(=O)c2c3c(ccc2o1)C(=O)CC(C(=O)OC)=N3	166 to 170 °C
CC(=O)N1CC(=O)NC(=O)N1c1cc(Cl)c(Oc2ccc(S(C)(=O)=O)cc2)c(Cl)c1	267 °C
FC(F)Oc1ccc2c(Cc3c(Cl)cncc3Cl)nnc(-n3cncn3)c2c1	220 to 224 °C
Nc1csc2ccc([N+](=O)[O-])cc12	155 to 158 °C
CCCCCCCCCCCCCCCCCCOc1cc(N(CC(=O)O)CC(=O)O)cc(S(=O)CC(=O)O)c1 (centres undefined)	138 to 140 °C
C=C(CC(=O)Nc1cccc(/C=C/c2nc(C3CCCCC3)cs2)c1)C(=O)O	187 to 189 °C
CCSc1ccc(Oc2ccc(C(=O)c3ccccc3)cc2)nc1C#N	88 to 90 °C

Next, consider the following molecule.
### Prompt Name the reported melting point value associated with the molecule "CCOC(=O)C=Cc1cc(OCc2ccccc2)ccc1-c1ccc(-c2cccnc2)c(C(F)F)c1"
### Response 93 to 95 °C

----------
# melting point annotations

COMPOUND	melting point
CC1CCC2(OC1)OC1CC3C4CC(=O)C5CCCCC5(C)C4CCC3(C)C1C2C (stereo not given)	210 to 212 °C
CCOC(=O)Nc1ccc(OCCCCl)cc1	91 to 93 °C
CS(=O)(=O)c1ccc(C2=C(c3ccccc3)CCC2)cc1	136 to 137 °C

Next, consider the following compound.
### Prompt Name the reported melting point value associated with the compound CC1(C)Oc2cc([N+](=O)[O-])sc2C(N2CCCCC2=O)C1O (stereo not given)
### Response 158 °C

----------
# melting point annotations

### Prompt Name the reported melting point value associated with the compound CN(C)CC1(C2(O)CCCCC2)Cc2cc3c(cc21)N(S(C)(=O)=O)CC3 (stereo unspecified)
### Response 156 to 158 °C

### Prompt Name the reported melting point value associated with the compound "O=Cc1ccc(Oc2ccc([N+](=O)[O-])cc2)cc1"
### Response 101 to 104 °C

### Prompt Name the reported melting point value associated with the compound "c1csc(-c2nc(COc3ccc(CCCCn4ccnc4)cc3)cs2)c1"
### Response 108 to 109 °C

### Prompt Name the reported melting point value associated with the compound O=C(O)c1cccc(NC(=O)C(COC2CCCCO2)NS(=O)(=O)c2ccc(Cl)cc2)c1 (stereo unspecified)
### Response 84 to 124 °C

### Prompt Name the reported melting point value associated with the compound "O=C(Nc1ccccc1)c1cc([N+](=O)[O-])ccc1Cl"
### Response 155 to 156 °C
